Below: a set of entries, each annotated with reported koff.
Test Target: T1, soluble monomeric human TREM2 (human, UniProt Q9NZC2 19-174, limits assumed)
T1 construct: Not the same as shed sTREM2; also called soluble monomeric TREM2
T1 sequence: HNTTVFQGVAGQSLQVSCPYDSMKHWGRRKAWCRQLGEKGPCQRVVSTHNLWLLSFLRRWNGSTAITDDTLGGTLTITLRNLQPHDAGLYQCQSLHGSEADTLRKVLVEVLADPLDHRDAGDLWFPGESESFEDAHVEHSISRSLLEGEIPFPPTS
Assay Comment: SPR (Biacore T200), 37 C; IgG on anti-CH1 chip, soluble monomeric TREM2
Report the value in s⁻¹ with no unit label.

Example cases with answers are listed next.
>>> data_value("3.10C2 IgG (rat variable regions; captured by anti-CH1 or anti-human Fab chips) (antibody, V domains shown, also called parental 3.10C2 clone; 3.10C2 control) VH: EVQLVETGGSLVQPGKSLKLTCATSGFPFSNVWMHWVRQSPEKQLEWIAHIKAKSDNYATYYAESVKGRFTISRDDSKTSIYLQMNSLKEDDTAIYYCTGLDYWGQGVMVTVSS VL: DTVLTQAPLSLSVTPGESASISCRSSKSLLGVRDITSLYWYLQKPGKSPQLLIYRMSNLASGVPDRFSGSGSETDFTLKISEVETEDVGVYYCAQFLRYPYTFGPGTKLELK")
"9.6e-05"
>>> data_value("hPara.09.v2 hIgG1 N297G (antibody, V domains shown, also called hPara.09.H5.hIgG1.N297G) VH: EVQLVESGGGLVQPGGSLKLSCATSGFPFSNVWLHWVRQASGKGPEWVAHIKAKSDNYATYYAESVKGRFTISRDDSKNTVYLQMNSLKTEDTAVYYCTDILEYWGQGTLVTVSS VL: DVVMTQSPLSLPVTPGEPASISCRSSRSLLTSKGITSLYWYLQKPGQSPQLLIYRMSNLASGIPDRFSGSGSGTDFTLKISRVEAEDVGVYYCAQFLVYPYTFGQGTKVEIKR")
"3.5e-05"
>>> data_value("h3.10C2.v1 hIgG1 N297G (antibody, V domains shown, Human IgG1 N297G; also called h3.10C2.v1.huIgG1.N297G) VH: EVQLVESGGGLVQPGGSLKLSCATSGFPFSNVWMHWVRQASGKGLEWIAHIKAKSDNYATYYAESVKGRFTISRDDSKTTIYLQMNSLKTEDTAVYYCTGLDYWGQGTTVTVSS VL: DVVMTQSPLSLPVTPGEPASISCRSSRSLLTSKGITSLYWYLQKPGQSPQLLIYRMSNLASGVPDRFSGSGSGTDFTLKISRVEAEDVGVYYCAQFLVYPYTFGQGTKVEIK")
0.00035

Now let's try a different one.
# input Given the binder Para.09 IgG with the 3.27H7 light chain (antibody, V domains shown, also called rat Para.09; Para.09-L27H7) VH: EVQLVETGGSLVQPGKSLRLTCATSGFPFSNVWLHWVRQSPEKHPEWVAHIKAKSDNYATYYAESVKGRFTISRDDSKSSVFLQMNSLKEEDTAIYYCTDILEYWGQGTLVTVSS VL: DVVLTQAPLSVSVTPGESASISCRSSRSLLTSKGITSLYWYLQKPGMSPHLLIYRMSNLASGIPDRFSGSGSETDFTLKISEVEPEDVGVYYCAQFLVYPYTFGAGTKLELK , what is its reported koff?
# output 2.1e-05
